System: MS2 coat protein
Experiment: apparent Kd, MS2 coat protein; higher = weaker binding; RNA-MaP array; tryptophan 2.4 mM where present
Details: ligand present: tryptophan; designed as: ON switch for tryptophan
parameter.measured: apparent Kd (µM)
Write the answer as a number in µM, unit excluded.

Can you look up apparent Kd on MS2 coat protein for `UUAUGCAGGUCGGCCGCCACUACACACAUGAGGAUCACCCAUGUAGUUACUGGGUGAAGUGGCAGUAGGACCGGGACCUGCAUAC` ? 0.316

Can you look up apparent Kd on MS2 coat protein for `AUGGACGACGAUCUGGGAAAACCAGAUCGACGAGGACCGGUACGGCCGCCACUCGUGUUUAUUUAACAUGAGGAUCACCCAUGUA` ? 0.0176

Can you look up apparent Kd on MS2 coat protein for `AUUAAGGAUAUGUAGACGGCGGAGAAGAGACGAGGACCGGUACGGCCGCCACUCGUGUUAGUUAACAUGAGGAUCACCCAUGUAA` ? 0.022

Can you look up apparent Kd on MS2 coat protein for `AAAUAAUAUUAAUUAAUUAUAUUAUUCUGACGAGGACCGGUACGGCCGCCACUCGGCCCAUGGUACAUGAGGAUCACCCAUGUCU` ? 0.0136
